- assayed-system: muscarinic acetylcholine receptor
- cond: rat brain membranes; read-out: mACh R affinity Ki
reported-property: pKi
Quick note: pKi means taking -log10 of the concentration in moles per liter.

CCCCC(CC)CNCC(CC)CCCC (stereo not shown) : 3.92

// field: pKi; key: C[C@@H]1CN(CCCn2c3ccccc3c3ccccc32)C[C@H](C)N1 [Rimcazole, reference compound] ; value = 4.49

// field: pKi; key: CCCCCN(CCCCC)CCCCC ; value = 4.33

// field: pKi; key: CCCCCNCCCCC ; value = 3.42

---

- assayed-system: muscarinic acetylcholine receptor
- Assay type: binding, rat
- cond: rat brain membranes, 1.35 nM [3H] QNB
reported-property: mACh R affinity pKi ± SEM (n)

Consider the reported mACh R affinity pKi ± SEM (n) for these molecules:
CCCCCNCCCCC : 3.4 ± 0.2 (5)
CCCCC(CC)CNCC(CC)CCCC (centres unmarked) : 3.9 ± 0.2 (6)
CCCCCN(CCCCC)CCCCC : 4.3 ± 0.4 (4)

Entry N=C(Nc1ccc(I)cc1)NC1C2CC3CC(C2)CC1C3 (centres unmarked) , muscarinic acetylcholine receptor data, mACh R affinity pKi ± SEM (n) value: 4.3

Entry C[C@@H]1CN(CCCn2c3ccccc3c3ccccc32)C[C@H](C)N1 [Rimcazole, reference compound] , muscarinic acetylcholine receptor data, mACh R affinity pKi ± SEM (n) value: 4.49 ± 0.10 (7)
